These entries and their values trace back to patent US20240270874A1.

Molecular target: T1, human KLB on CHOK1-hKLB cells (human, UniProt Q86Z14 1-1044)
T1 construct: whole, on cells; also called human KLB antigen; β-Klotho
T1 sequence (looked up): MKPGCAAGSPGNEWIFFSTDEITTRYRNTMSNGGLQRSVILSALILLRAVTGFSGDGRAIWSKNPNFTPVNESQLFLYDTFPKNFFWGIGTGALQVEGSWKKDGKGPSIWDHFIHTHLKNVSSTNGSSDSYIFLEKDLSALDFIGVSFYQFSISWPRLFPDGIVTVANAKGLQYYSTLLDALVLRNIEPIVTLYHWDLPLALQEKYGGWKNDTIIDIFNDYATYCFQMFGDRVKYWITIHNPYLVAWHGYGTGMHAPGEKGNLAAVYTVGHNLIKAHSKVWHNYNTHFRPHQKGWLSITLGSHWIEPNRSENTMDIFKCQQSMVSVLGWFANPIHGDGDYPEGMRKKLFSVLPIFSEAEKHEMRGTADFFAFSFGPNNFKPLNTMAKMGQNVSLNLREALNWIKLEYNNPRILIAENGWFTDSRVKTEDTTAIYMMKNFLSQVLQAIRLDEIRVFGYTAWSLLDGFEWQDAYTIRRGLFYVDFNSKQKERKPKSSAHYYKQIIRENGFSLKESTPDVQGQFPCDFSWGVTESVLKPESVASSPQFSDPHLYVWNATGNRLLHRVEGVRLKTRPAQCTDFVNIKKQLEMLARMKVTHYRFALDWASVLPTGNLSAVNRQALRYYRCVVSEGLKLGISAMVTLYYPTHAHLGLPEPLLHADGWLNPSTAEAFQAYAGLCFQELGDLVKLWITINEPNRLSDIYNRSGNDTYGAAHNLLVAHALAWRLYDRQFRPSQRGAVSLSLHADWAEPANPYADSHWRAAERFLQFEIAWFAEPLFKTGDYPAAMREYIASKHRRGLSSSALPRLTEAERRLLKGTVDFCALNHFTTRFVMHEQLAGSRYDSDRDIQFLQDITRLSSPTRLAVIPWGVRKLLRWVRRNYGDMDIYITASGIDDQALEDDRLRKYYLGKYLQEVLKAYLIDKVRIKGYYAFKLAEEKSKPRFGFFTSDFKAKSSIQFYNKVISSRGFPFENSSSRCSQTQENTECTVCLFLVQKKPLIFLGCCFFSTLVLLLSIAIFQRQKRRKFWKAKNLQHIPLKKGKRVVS
Assay: flow cytometry on CHOK1-hKLB cells
Measured metric: pEC50
Please treat pEC50 as minus the base-10 logarithm of the molar concentration.

Worked cases, answers included:
| Binder | pEC50 |
| --- | --- |
| hAb18-7 (antibody, human IgG1, kappa, L234A L235A, V domains shown, humanized mAb-18: hAb18VH1 + hAb18VL2-1; human IgG1 (L234A, L235A) / kappa constant regions) VH: EVQLVQSGAEVKKPGASVKVSCKASGYTFTDYAMHWVRQAPGQRLEWMGVISTYSGTTNYNQNFKGRVTITVDKSASTAYMELSSLRSEDTAVYYCARSGPLDYWGQGTTVTVSS VL: ENVLTQSPDFQSVTPKEKVTITCRASSSVSSSYLHWYQQKPDQSPKLWIYSTSQLASGVPSRFSGSGSGTDYTLTINSLEAEDAATYYCQQYSGYPLTFGQGTKLEIKR | 8.62 |
| hAb18-12 (antibody, human IgG1, kappa, L234A L235A, V domains shown, humanized mAb-18: hAb18VH1 + hAb18VL2-6; human IgG1 (L234A, L235A) / kappa constant regions) VH: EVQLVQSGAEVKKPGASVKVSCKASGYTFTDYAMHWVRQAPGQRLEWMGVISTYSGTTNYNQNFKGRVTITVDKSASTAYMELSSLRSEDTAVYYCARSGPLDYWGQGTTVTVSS VL: ENVLTQSPDFQSVTPKEKVTITCRASSSLSSSYLHWYQQKPDQSPKLWIYSTSQLASGVPSRFSGSGSGTDYTLTINSLEAEDAATYYCQQYSGYPLTFGQGTKLEIKR | 8.72 |

**Query** Tell me the measured pEC50 of hAb99-15 (antibody, human IgG1, kappa, L234A L235A, V domains shown, humanized mAb-99: hAb99VH1-QG + hAb99VL2; human IgG1 (L234A, L235A) / kappa constant regions) VH: EVQLVQSGAEVKKPGASVKVSCKASGYTFTNYGINWVRQAPGQRLEWMGYIYIGQGDIEYNAKFKGRVTITSDTSASTAYMELSSLRSEDTAVYYCARGRGLGHFDVWGQGTTVTVSS VL: DIQMTQSPSSLSASVGDRVTITCRASKSISKFLAWFQQKPGKTNKLLIYSGSTLQSGVPSRFSGSGSGTDFTLTISSLQPEDFATYYCQQHNEYPWTFGGGTKVEIKR , please.
**Result** 9.39

**Query** Tell me the measured pEC50 of hAb99-21 (antibody, human IgG1, kappa, L234A L235A, V domains shown, humanized mAb-99: hAb99VH3-QG + hAb99VL2; human IgG1 (L234A, L235A) / kappa constant regions) VH: EVQLVQSGAEVKKPGASVKVSCKTSGYTFTNYGINWVRQAPGQGLEWMGYIYIGQGDIEYNAKFKGRVTITSDTSASTAYMELSSLRSEDTAVYFCARGRGLGHFDVWGQGTTVTVSS VL: DIQMTQSPSSLSASVGDRVTITCRASKSISKFLAWFQQKPGKTNKLLIYSGSTLQSGVPSRFSGSGSGTDFTLTISSLQPEDFATYYCQQHNEYPWTFGGGTKVEIKR , please.
**Result** 9.35

**Query** Tell me the measured pEC50 of hAb99-19 (antibody, human IgG1, kappa, L234A L235A, V domains shown, humanized mAb-99: hAb99VH3-NV + hAb99VL2; human IgG1 (L234A, L235A) / kappa constant regions) VH: EVQLVQSGAEVKKPGASVKVSCKTSGYTFTNYGINWVRQAPGQGLEWMGYIYIGNVDIEYNAKFKGRVTITSDTSASTAYMELSSLRSEDTAVYFCARGRGLGHFDVWGQGTTVTVSS VL: DIQMTQSPSSLSASVGDRVTITCRASKSISKFLAWFQQKPGKTNKLLIYSGSTLQSGVPSRFSGSGSGTDFTLTISSLQPEDFATYYCQQHNEYPWTFGGGTKVEIKR , please.
**Result** 9.42
